- Experimental system: recombinant GST-FXR fusion protein (Homo sapiens)
- Sequence (Q96RI1 1-486): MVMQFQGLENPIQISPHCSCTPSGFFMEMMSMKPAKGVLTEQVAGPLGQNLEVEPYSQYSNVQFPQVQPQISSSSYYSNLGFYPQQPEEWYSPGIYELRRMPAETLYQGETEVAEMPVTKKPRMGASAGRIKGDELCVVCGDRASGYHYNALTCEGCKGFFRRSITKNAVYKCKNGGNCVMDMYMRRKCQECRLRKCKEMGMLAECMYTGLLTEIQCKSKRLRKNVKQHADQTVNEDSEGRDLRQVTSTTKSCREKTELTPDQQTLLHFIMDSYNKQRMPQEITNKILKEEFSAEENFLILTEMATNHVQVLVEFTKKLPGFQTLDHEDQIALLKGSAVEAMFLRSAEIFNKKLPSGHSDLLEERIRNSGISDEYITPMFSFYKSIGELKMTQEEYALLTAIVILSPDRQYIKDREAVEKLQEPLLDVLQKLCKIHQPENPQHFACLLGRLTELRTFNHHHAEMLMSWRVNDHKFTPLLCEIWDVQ
- Protocol description: FXR activity at the molecular level (AlphaScreen)
- Format: biochemical
- Condition description: AlphaScreen, GST-FXR; read-out: FXR activity at the molecular level EC50
pEC50: −log10 of the molar value.
Recorded metric: pEC50

Item O=c1[nH]c(-c2ccc(N3[C@@H]4CC[C@H]3C[C@@H](OCc3c(-c5ccccc5OC(F)F)noc3C3CC3)C4)nc2)no1 [Example 11] has what recorded pEC50?
7.00 to 8.00

Next compound: Cc1ccccc1-c1noc(C2CC2)c1CO[C@H]1C[C@H]2CC[C@@H](C1)N2c1ccc(-c2noc(=O)[nH]2)cn1 [Example 12]
7.00 to 8.00

Proceed to O=c1[nH]c(-c2ccc(N3[C@@H]4CC[C@H]3C[C@@H](OCc3c(-c5ccccc5OC(F)F)noc3C3CC3)C4)cc2F)no1 [Example 13]
7.00 to 8.00

---
Form field: reported pEC50 of O=c1[nH]c(-c2ccc(N3[C@@H]4CC[C@H]3C[C@@H](OCc3c(-c5c(Cl)cccc5Cl)noc3C3CC3)C4)nc2)no1 [Example 4]
> 8.00

Param item: O=c1[nH]c(-c2ccc(N3[C@@H]4CC[C@H]3C[C@H](OCc3c(-c5c(Cl)cccc5Cl)noc3C3CC3)C4)cc2)no1 [Example 2]
< 6.00

Follow-up item: O=c1[nH]c(-c2ccc(N3[C@@H]4CC[C@H]3C[C@@H](OCc3c(-c5ccccc5OC(F)(F)F)noc3C3CC3)C4)nc2)no1 [Example 6]
7.00 to 8.00

Then this compound: O=c1[nH]c(-c2ccc(N3[C@@H]4CC[C@H]3C[C@@H](OCc3c(-c5ccccc5OC(F)(F)F)noc3C3CC3)C4)cc2F)no1 [Example 10]
7.00 to 8.00

And then O=c1[nH]c(-c2ccc(N3[C@@H]4CC[C@H]3C[C@@H](OCc3c(-c5c(Cl)cccc5Cl)noc3C3CC3)C4)cc2)no1 [Example 1] , what is it?
> 8.00

// same read-out, input: O=c1[nH]c(-c2ccc(N3[C@@H]4CC[C@H]3C[C@@H](OCc3c(-c5c(F)cccc5F)noc3C3CC3)C4)nc2)no1 [Example 3]
7.00 to 8.00

Query O=c1[nH]c(-c2ccc(N3[C@@H]4CC[C@H]3C[C@@H](OCc3c(-c5ccccc5C(F)(F)F)noc3C3CC3)C4)nc2)no1 [Example 5] next
7.00 to 8.00
